Subject of test: BRD9 (Homo sapiens, UniProt Q9H8M2)
Sequence (Q9H8M2 whole entry): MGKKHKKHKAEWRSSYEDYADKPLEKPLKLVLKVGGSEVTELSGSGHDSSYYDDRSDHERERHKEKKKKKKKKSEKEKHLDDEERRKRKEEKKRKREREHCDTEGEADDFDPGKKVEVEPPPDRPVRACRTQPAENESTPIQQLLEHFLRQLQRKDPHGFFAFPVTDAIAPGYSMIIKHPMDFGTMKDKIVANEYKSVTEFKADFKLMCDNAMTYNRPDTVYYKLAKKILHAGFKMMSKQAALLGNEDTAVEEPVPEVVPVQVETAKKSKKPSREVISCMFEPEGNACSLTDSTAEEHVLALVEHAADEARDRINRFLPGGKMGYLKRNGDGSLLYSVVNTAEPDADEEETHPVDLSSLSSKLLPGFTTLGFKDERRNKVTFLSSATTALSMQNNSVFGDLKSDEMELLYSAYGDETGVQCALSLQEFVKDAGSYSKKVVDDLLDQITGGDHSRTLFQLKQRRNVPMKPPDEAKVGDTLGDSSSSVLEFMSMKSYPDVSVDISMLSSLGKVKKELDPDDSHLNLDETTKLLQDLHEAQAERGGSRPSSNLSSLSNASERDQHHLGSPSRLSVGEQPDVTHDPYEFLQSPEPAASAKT
Protocol notes: Degradation of BRD9 (IF), immunofluorescence in MV4-11 cells, 24 hours (Assay Protocol 2)
Type: cell-based
Parameters: A suspension of MV4-11 cells (ATCC CRL-9591) was prepared; host or cells: MV4-11
Setup conditions: Assay protocol 2; BRD9 degradation; read-out: DC50
Overview of reported DC50 across a group of molecules:

Molecule	DC50
COc1cc(-c2cn(C)c(=O)c(C)c2C)cc(OC)c1CN1CCN(Cc2cccc3c2CCN(C(=O)/C(C#N)=C/C(C)(C)C)C3C(C)C)CC1 (mixture of isomers) [Compound C7]	< 1.25 nM
COc1cc(-c2cn(C)c(=O)c(C)c2C)cc(OC)c1CN1CCN(Cc2cccc3c2CCN(C(=O)/C(C#N)=C/C2CCC(F)(F)CC2)C3C)CC1 (mixture of isomers) [Compound B72]	1.25 to 10 nM
COc1cc(-c2cn(C)c(=O)c(C)c2C)cc(OC)c1CN1CCN(Cc2cccc3c2CCN(C(=O)/C(C#N)=C/c2cc(C)on2)C3C)CC1 (mixture of isomers) [Compound B4]	1.25 to 10 nM
COc1cc(-c2cn(C)c(=O)c3[nH]ncc23)cc(OC)c1CN1CCN(Cc2cccc3c2CCN(C(=O)/C(C#N)=C/c2cccc(Br)n2)C3C)C2(CC2)C1 (mixture of isomers) [Compound B118]	< 1.25 nM
COc1cc(-c2cn(C)c(=O)c(C)c2C)cc(OC)c1CN1CCN(Cc2cccc3c2CCN(C(=O)/C(C#N)=C/c2nc(C(F)(F)F)cs2)C3C)CC1 (mixture of isomers) [Compound B11]	< 1.25 nM
COc1cc(-c2cn(C)c(=O)c(C)c2C)cc(OC)c1CN1CCN(Cc2ccc3c(c2)[C@@H](C)N(C(=O)/C(C#N)=C/C(C)(C)C)CC3)CC12CC2 (mixture of isomers) [Compound B199]	25 to 1000 nM

Proceeding to the next molecule to report its DC50.
Asked: Notebook: pull reported DC50 for BRD9 (Homo sapiens, UniProt Q9H8M2), entry COc1cc(-c2cn(C)c(=O)c(C)c2C)cc(OC)c1C(=O)N1CCN(Cc2cccc3c2CCN(C(=O)/C(C#N)=C/c2cccc(Br)n2)C3C)CC1 (mixture of isomers) [Compound B80]
Given back: < 1.25 nM
